SYSTEM_TESTED: human mGluR5 (Homo sapiens, UniProt P41594)
Sequence (P41594 21-1180 isoform P41594-2 limits assumed): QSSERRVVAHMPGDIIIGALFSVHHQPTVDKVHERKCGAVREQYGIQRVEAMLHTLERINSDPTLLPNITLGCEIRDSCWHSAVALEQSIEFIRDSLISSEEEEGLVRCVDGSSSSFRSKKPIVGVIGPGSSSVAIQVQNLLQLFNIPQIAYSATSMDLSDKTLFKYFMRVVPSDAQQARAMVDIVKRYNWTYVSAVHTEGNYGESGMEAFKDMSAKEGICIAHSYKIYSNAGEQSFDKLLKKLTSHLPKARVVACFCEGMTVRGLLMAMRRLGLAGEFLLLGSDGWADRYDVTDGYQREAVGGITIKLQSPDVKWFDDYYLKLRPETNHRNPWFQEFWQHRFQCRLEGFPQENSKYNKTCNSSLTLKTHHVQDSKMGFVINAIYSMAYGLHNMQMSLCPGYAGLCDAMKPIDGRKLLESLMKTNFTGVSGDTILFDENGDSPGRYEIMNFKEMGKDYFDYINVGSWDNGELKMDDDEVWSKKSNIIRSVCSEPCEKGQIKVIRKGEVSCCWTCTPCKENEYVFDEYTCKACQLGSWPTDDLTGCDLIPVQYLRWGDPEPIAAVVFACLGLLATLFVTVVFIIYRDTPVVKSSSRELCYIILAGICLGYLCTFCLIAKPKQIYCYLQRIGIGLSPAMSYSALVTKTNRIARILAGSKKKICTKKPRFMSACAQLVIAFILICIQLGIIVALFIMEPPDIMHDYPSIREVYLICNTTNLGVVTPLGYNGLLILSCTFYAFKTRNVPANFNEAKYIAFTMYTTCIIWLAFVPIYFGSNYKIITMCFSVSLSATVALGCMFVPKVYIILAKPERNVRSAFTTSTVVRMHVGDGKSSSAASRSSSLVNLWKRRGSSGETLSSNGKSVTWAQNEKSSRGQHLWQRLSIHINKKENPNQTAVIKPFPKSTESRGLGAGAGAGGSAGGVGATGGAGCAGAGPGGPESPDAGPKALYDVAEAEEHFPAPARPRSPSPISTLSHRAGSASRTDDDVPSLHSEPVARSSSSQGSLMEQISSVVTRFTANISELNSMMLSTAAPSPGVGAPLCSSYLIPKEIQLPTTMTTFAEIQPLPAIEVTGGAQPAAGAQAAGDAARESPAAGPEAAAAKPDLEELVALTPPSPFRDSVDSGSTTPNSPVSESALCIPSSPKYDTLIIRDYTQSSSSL
ASSAY_NOTES: Cell-based functional Ca2+ mobilization assay (FDSS), potentiation of glutamate EC20 response
RUN_CONDITIONS: H10H cell-line (HEK, recombinant human mGluR5); positive allosteric modulation in presence of glutamate EC20; concentration in mol/L

COMPOUND | SYSTEM_TESTED | REL | EC50 / µM
O=C1c2cc(COc3ccccc3F)nn2CCN1Cc1ccccc1 | human mGluR5 (Homo sapiens, UniProt P41594) | = | 0.209
N#Cc1cccc(OCc2cc3n(n2)CCN(Cc2ccccc2)C3=O)c1 | human mGluR5 (Homo sapiens, UniProt P41594) | = | 0.38
Cc1nc(CN2CCn3nc(COc4ccccc4)cc3C2=O)ccc1F | human mGluR5 (Homo sapiens, UniProt P41594) | = | 0.295
O=C1c2cc(COc3cccc(F)c3)nn2CCN1Cc1ccccc1 | human mGluR5 (Homo sapiens, UniProt P41594) | = | 0.0468
COc1cncc(CN2CCn3nc(COc4ccccc4)cc3C2=O)n1 | human mGluR5 (Homo sapiens, UniProt P41594) | = | 0.525
COc1ccc(CN2CCn3nc(COc4ccccc4)cc3C2=O)cc1 | human mGluR5 (Homo sapiens, UniProt P41594) | = | 0.209
Cc1ccccc1CN1CCn2nc(COc3ccccc3)cc2C1=O | human mGluR5 (Homo sapiens, UniProt P41594) | = | 0.0339
CC1CN(Cc2ccccc2)C(=O)c2cc(COc3ccc(F)cc3)nn21 (single isomer, unassigned) | human mGluR5 (Homo sapiens, UniProt P41594) | = | 0.0933
O=C1c2cc(COc3ccc(F)cc3)nn2CCN1Cc1ncccc1Cl | human mGluR5 (Homo sapiens, UniProt P41594) | = | 0.0933
COc1cccc(CN2CCn3nc(COc4ccccc4)cc3C2=O)c1F | human mGluR5 (Homo sapiens, UniProt P41594) | = | 0.107
COc1cnc(CN2CCn3nc(COc4ccccc4)cc3C2=O)nc1 | human mGluR5 (Homo sapiens, UniProt P41594) | = | 0.0309
COc1ccccc1CN1CCn2nc(COc3ccccc3)cc2C1=O | human mGluR5 (Homo sapiens, UniProt P41594) | = | 0.0407
N#Cc1cccc(CN2CCn3nc(COc4ccccc4)cc3C2=O)c1 | human mGluR5 (Homo sapiens, UniProt P41594) | = | 0.229
O=C1c2cc(COc3ccccc3)nn2CCN1Cc1cccc(F)c1 | human mGluR5 (Homo sapiens, UniProt P41594) | = | 0.0479
C[C@H](c1ccccc1)N1CCn2nc(COc3ccccc3)cc2C1=O | human mGluR5 (Homo sapiens, UniProt P41594) | = | 0.0309
O=C1c2cc(COc3ccccc3)nn2CCN1Cc1ccncc1 | human mGluR5 (Homo sapiens, UniProt P41594) | = | 1.78
O=C1c2cc(COc3ccccc3)nn2CCN1Cc1ccccc1 | human mGluR5 (Homo sapiens, UniProt P41594) | = | 0.049
Cn1c(CN2CCn3nc(COc4ccccc4)cc3C2=O)nc2ccccc21 | human mGluR5 (Homo sapiens, UniProt P41594) | > | 10
COc1ccc(CN2CCn3nc(COc4cc(C)ccn4)cc3C2=O)cc1 | human mGluR5 (Homo sapiens, UniProt P41594) | > | 10
O=C1c2cc(COc3cccc(F)c3)nn2CCN1Cc1ncccc1F | human mGluR5 (Homo sapiens, UniProt P41594) | = | 0.55
O=C1c2cc(COc3ccccc3)nn2CCCN1Cc1ccccc1 | human mGluR5 (Homo sapiens, UniProt P41594) | = | 0.0871
O=C1c2cc(COc3ccccc3)nn2CCN1Cc1ccc(F)c(F)c1 | human mGluR5 (Homo sapiens, UniProt P41594) | = | 0.0776
Cc1cccc(CN2C(=O)c3cc(COc4ccccc4)nn3C[C@H]2C)n1 | human mGluR5 (Homo sapiens, UniProt P41594) | = | 0.302
C[C@@H]1Cn2nc(COc3cccc(C#N)c3)cc2C(=O)N1Cc1ccccc1 | human mGluR5 (Homo sapiens, UniProt P41594) | = | 0.468
O=C1c2cc(COc3ccccc3)nn2CCN1Cc1cccc2cccnc12 | human mGluR5 (Homo sapiens, UniProt P41594) | = | 0.0257
O=C1c2cc(COc3ccccc3)nn2CCN1Cc1cccnc1 | human mGluR5 (Homo sapiens, UniProt P41594) | = | 1.91
O=C1c2cc(COc3ccccc3)nn2CCN1Cc1ccc(F)cn1 | human mGluR5 (Homo sapiens, UniProt P41594) | = | 0.55
C[C@@H]1Cn2nc(COc3ccccc3)cc2C(=O)N1Cc1ncccc1Cl | human mGluR5 (Homo sapiens, UniProt P41594) | = | 0.275
O=C1c2cc(COc3ccccc3)nn2CCN1Cc1ccc(C(F)(F)F)nc1 | human mGluR5 (Homo sapiens, UniProt P41594) | = | 0.372
Cc1nccc(CN2CCn3nc(COc4ccccc4)cc3C2=O)n1 | human mGluR5 (Homo sapiens, UniProt P41594) | = | 1.74
Cc1ccc(CN2CCn3nc(COc4ccccc4)cc3C2=O)cc1 | human mGluR5 (Homo sapiens, UniProt P41594) | = | 0.145
O=C1c2cc(COc3ccccc3)nn2CCN1Cc1ncc(F)cn1 | human mGluR5 (Homo sapiens, UniProt P41594) | = | 0.398
COc1ccc(CN2CCn3nc(COc4cc(C)nc(C)c4)cc3C2=O)cc1 | human mGluR5 (Homo sapiens, UniProt P41594) | > | 31.6
